Entries annotated with measured Plant response rating, Foxtail, Giant
Tested on: giant foxtail (Setaria faberii)
Assay: Test A pre-/postemergence plant response
Assay type: in vivo
Conditions: Preemergence, 500 g ai/ha; 0 to 100 scale, 0 = no effect, 100 = complete control
Lab note: jot the number down without any unit.

Sample records with Plant response rating, Foxtail, Giant:
| compound | assay.readout | data.value |
| --- | --- | --- |
| CCc1ccc(-n2c(-c3cc(F)cc(F)c3)ncc(C(=O)C3=C(O)CCCC3=O)c2=O)cc1 [Compound 158] | Plant response rating, Foxtail, Giant | 80 |
| CCc1ccc(-n2c(-c3cccc(Br)c3)ncc(C(=O)C3=C(O)CCCC3=O)c2=O)cc1 [Compound 177] | Plant response rating, Foxtail, Giant | 20 |
| CCCCn1c(-c2cccc(F)c2)ncc(C(=O)C2=C(O)C3CCC(C3)C2=O)c1=O (centres unmarked) [Compound 237] | Plant response rating, Foxtail, Giant | 90 |
| Cc1cccc(-c2ncc(C(=O)C3=C(O)CCCC3=O)c(=O)n2-c2ccccc2C)c1 [Compound 210] | Plant response rating, Foxtail, Giant | 90 |
| Cc1ccccc1-n1c(-c2cc(F)cc(F)c2)ncc(C(=O)C2=C(O)CCCC2=O)c1=O [Compound 159] | Plant response rating, Foxtail, Giant | 90 |
| Cc1cc(F)ccc1-n1c(-c2cccc(Br)c2)ncc(C(=O)C2=C(O)CCCC2=O)c1=O [Compound 166] | Plant response rating, Foxtail, Giant | 20 |
| Cc1ccc(-n2c(-c3cccc(F)c3)ncc(C(=O)C3=C(O)CCCC3=O)c2=O)cc1 [Compound 202] | Plant response rating, Foxtail, Giant | 100 |

Kindly consider the entry below.
Short answer for O=C1CCCC(O)=C1C(=O)c1cnc(-c2cccc(C(F)(F)F)c2)n(C2CCCCC2)c1=O [Compound 195] : Plant response rating, Foxtail, Giant was 30
